Reported values of Trimeric HA Binding RLU for individual entries
- assayedTarget: recombinant homotrimeric HA, A/swine/Ontario/01911-2/99 H4N6 (Influenza A virus A/swine/Ontario/01911-2/99 (H4N6))
- protocolSummary: trimeric HA microarray, transfection set 2
- appliedConditions: remark: other sources report otherwise
measurementType: Trimeric HA Binding RLU (RLU)

>  <binder>
TCN-504 (3251_K17) (antibody, V domains shown) VH: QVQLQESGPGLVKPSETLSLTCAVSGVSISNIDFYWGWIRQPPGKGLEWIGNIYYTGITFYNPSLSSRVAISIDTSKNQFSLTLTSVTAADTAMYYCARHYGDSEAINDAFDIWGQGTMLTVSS VL: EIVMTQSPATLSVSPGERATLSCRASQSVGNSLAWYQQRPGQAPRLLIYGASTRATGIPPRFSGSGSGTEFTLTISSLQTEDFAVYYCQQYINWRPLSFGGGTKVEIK

>  <measurementType>
Trimeric HA Binding RLU

>  <number>
32500

$$$$
>  <binder>
TCN-528 (5087_P17) (antibody, V domains shown) VH: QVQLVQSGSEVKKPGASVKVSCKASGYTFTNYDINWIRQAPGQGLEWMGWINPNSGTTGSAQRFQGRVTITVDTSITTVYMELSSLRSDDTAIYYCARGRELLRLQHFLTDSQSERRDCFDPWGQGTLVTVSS VL: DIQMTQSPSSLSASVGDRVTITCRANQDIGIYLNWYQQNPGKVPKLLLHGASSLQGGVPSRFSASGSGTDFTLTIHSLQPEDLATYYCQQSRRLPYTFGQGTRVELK

>  <measurementType>
Trimeric HA Binding RLU

>  <number>
49200

$$$$
>  <binder>
TCN-523 (5248_A17) (antibody, V domains shown) VH: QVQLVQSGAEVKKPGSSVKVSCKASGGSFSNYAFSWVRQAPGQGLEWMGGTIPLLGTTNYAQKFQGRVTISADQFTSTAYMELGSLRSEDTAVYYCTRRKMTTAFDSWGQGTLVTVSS VL: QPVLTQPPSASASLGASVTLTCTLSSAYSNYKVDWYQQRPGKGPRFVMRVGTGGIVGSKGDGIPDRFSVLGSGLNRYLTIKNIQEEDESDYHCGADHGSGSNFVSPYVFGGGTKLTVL

>  <measurementType>
Trimeric HA Binding RLU

>  <number>
82

$$$$

Reference for the values: patent US20120207760A1
